- assay details: Second PK study: daily oral dose for 5 days, two formulations
- Type: in vivo, female Swiss Albino mice
- condition parameters: female, Swiss Albino, mouse, plasma, po, 5 mg/kg, day 5, daily oral 5 mg/kg, Formulation 1, female mice, AUC0-24 h
property measured: AUC(0-t) (ng·h/mL)

INSERT INTO measurements (smiles_string, test_value) VALUES
  ('COc1cc(N2CCNCC2)ccc1Nc1ncc2c(n1)-n1ccc(C(=O)Nc3c(C)cccc3C)c1CC2', 374);

* * *

- assay details: First PK study: single oral dose, two formulations
- Type: in vivo, female Swiss Albino mice
- condition parameters: female, Swiss Albino, mouse, plasma, po, 10 mg/kg, single oral 10 mg/kg, Formulation 1, female mice, mean (SD)
property measured: Cmax (ng/mL)

INSERT INTO results (smiles_string, property_measured, test_value) VALUES
  ('COc1cc(N2CCNCC2)ccc1Nc1ncc2c(n1)-n1ccc(C(=O)Nc3c(C)cccc3C)c1CC2', 'Cmax', 210);

* * *

- assay details: First PK study: single oral dose, two formulations
- Type: in vivo, female Swiss Albino mice
- condition parameters: female, Swiss Albino, mouse, plasma, po, 5 mg/kg, single oral 5 mg/kg, Formulation 1, female mice, based on i.v. exposure; read-out: F (%)
property measured: bioavailability (%)

INSERT INTO results (smiles_string, property_measured, test_value) VALUES
  ('COc1cc(N2CCNCC2)ccc1Nc1ncc2c(n1)-n1ccc(C(=O)Nc3c(C)cccc3C)c1CC2', 'bioavailability', 76);

* * *

- assay details: Second PK study: daily oral dose for 5 days, two formulations
- Type: in vivo, female Swiss Albino mice
- condition parameters: female, Swiss Albino, mouse, plasma, po, 5 mg/kg, day 5, daily oral 5 mg/kg, Formulation 1, female mice
property measured: AUC(0-inf)

INSERT INTO measurements (compound, test_value) VALUES
  ('COc1cc(N2CCNCC2)ccc1Nc1ncc2c(n1)-n1ccc(C(=O)Nc3c(C)cccc3C)c1CC2 [compound of formula (I)]', '0.408 µg·h/mL');

* * *

- assay details: Second PK study: daily oral dose for 5 days, two formulations
- Type: in vivo, female Swiss Albino mice
- condition parameters: female, Swiss Albino, mouse, plasma, po, 5 mg/kg, day 5, daily oral 5 mg/kg, Formulation 2, female mice; read-out: Apparent T1/2 (converted)
property measured: half-life (h)

INSERT INTO assay_data (smiles_string, test_value) VALUES
  ('COc1cc(N2CCNCC2)ccc1Nc1ncc2c(n1)-n1ccc(C(=O)Nc3c(C)cccc3C)c1CC2', 4.02);

* * *

- assay details: Maximum tolerated dose (MTD) in mice
- condition parameters: mouse, in vivo, po, orally daily
property measured: MTD

INSERT INTO measurements (smiles_string, property_measured, test_value) VALUES
  ('COc1cc(N2CCNCC2)ccc1Nc1ncc2c(n1)-n1ccc(C(=O)Nc3c(C)cccc3C)c1CC2', 'MTD', '7.5 mg/kg');

* * *

- assay details: Second PK study: daily oral dose for 5 days, two formulations
- Assay type: in vivo, female Swiss Albino mice
- condition parameters: female, Swiss Albino, mouse, plasma, po, 10 mg/kg, day 5, daily oral 10 mg/kg, Formulation 1, female mice
- Method: In a second study female Swiss Albino mice were administered daily oral dose of 5, 7.5, or 10 mg/kg of the compound of formula (I) for 5 days. […] PK samples were collected on day 5 for groups 1 to 6. Formulation 1 consisted of DMSO, cremophor EL, and 5% mannitol in water (10/10/80; v/v/v). Formulation 2 consisted of ethanol, PEG 400, and citric acid 20 mM (10/10/80; v/v/v). […] PK parameters were calculated using Phoenix® WinNonLin 6.4. […]
property measured: Cmax (ng/mL)

INSERT INTO results (smiles_string, units, test_value) VALUES
  ('COc1cc(N2CCNCC2)ccc1Nc1ncc2c(n1)-n1ccc(C(=O)Nc3c(C)cccc3C)c1CC2', 'ng/mL', 40.1);
